- Tested on: DU-145
- assay explanation: Cytotoxicity against human DU145 cells assessed as growth inhibition after 48 hrs by SRB assay
- Assay type: functional
- settings: DU-145, 48 h, read-out: LC50 (the source's name)
measured property: CC50 (µM)
Numbers only, in µM.

Your task in this section: give CC50 for each listed record.
1. CN(C)CCCSc1nc2ccc3c(c2[nH]1)C(=O)c1ccccc1C3=O
2. O=C1c2ccccc2C(=O)c2c1ccc1nc(SCCN3CCCC3)[nH]c21

Key:
35.9
39.6

---

- assay explanation: Cytotoxicity against human NCI-ADR-RES cells assessed as growth inhibition after 48 hrs by SRB assay
- Format: functional
Field: TGI. Provide a value for each of the molecules that follow.
Answers are plain numbers, in µM.

                                  structure  unit_of_measure  result_value
0  CN(C)CCCSc1nc2ccc3c(c2[nH]1)C(=O)c1ccccc1C3=O               µM          21.5

API: the following record is the query input.
Exercise: TGI lookup needed for "O=C1c2ccccc2C(=O)c2c1ccc1nc(SCCN3CCCC3)[nH]c21" , thanks.
Key: 33.7

---

- assay system: Telomerase reverse transcriptase (Homo sapiens)
- assay explanation: Inhibition of human tert transcriptional activity assessed as SEAP activity at 1 uM after 24 hrs by SEAP reporter assay
- Design: scale not given: the % may be the effect or the level left
measured property: Activity (%)
One number for each entry, in %.

Worked examples follow.
>>> print(df.to_string())
                                  structure                              assay_system  measured_property  unit_of_measure  result_value
0  O=C1c2ccccc2C(=O)c2c1ccc1nc(SCCN3CCCCC3)[nH]c21  Telomerase reverse transcriptase (Homo sapiens)           Activity                %           111
1  O=C1c2ccccc2C(=O)c2c1ccc1nc(SCCCCCl)[nH]c21  Telomerase reverse transcriptase (Homo sapiens)           Activity                %           100
2  CCN(CC)C(=O)CSc1nc2ccc3c(c2[nH]1)C(=O)c1ccccc1C3=O  Telomerase reverse transcriptase (Homo sapiens)           Activity                %            96

For each of the molecules below, state Activity.
1. O=C1c2ccccc2C(=O)c2c1ccc1[nH]c(=S)[nH]c21
2. O=C1c2ccccc2C(=O)c2c1ccc1nc(SCCCN3CCCCC3)[nH]c21
3. Cc1ccccc1CSc1nc2ccc3c(c2[nH]1)C(=O)c1ccccc1C3=O

Key:
1: 97; 2: 85; 3: 88

---

- Tested on: HCT-116
- assay explanation: Cytotoxicity against human HCT116 cells assessed as cell growth at 10 uM after 48 hrs by SRB assay
- Type: functional
- settings: HCT-116, 48 h, read-out: Activity
// 0 strictly below 50% in growth at 10 µM; 1 otherwise

>>> df
                                  structure  assay_system  classification
0  O=C1c2ccccc2C(=O)c2c1ccc1nc(SCCN3CCCC3)[nH]c21       HCT-116               0
1  O=C1c2ccccc2C(=O)c2c1ccc1[nH]c(=S)[nH]c21       HCT-116               1
2  CCCSc1nc2ccc3c(c2[nH]1)C(=O)c1ccccc1C3=O       HCT-116               0

Exercise: Kindly determine if growth at 10 µM recorded for "O=C1c2ccccc2C(=O)c2c1ccc1nc3n(c21)CCS3" is above or exactly 50%.
Key: 1

Exercise: # bool: growth at 10 µM of "CCSc1nc2ccc3c(c2[nH]1)C(=O)c1ccccc1C3=O" >= 50%
Key: 1

Exercise: Could you verify whether the entry "CN(C)CCCSc1nc2ccc3c(c2[nH]1)C(=O)c1ccccc1C3=O" shows growth at 10 µM of no less than 50%?
Key: 0
